target: Histamine H4 receptor (Homo sapiens, UniProt Q9H3N8); assay: Inhibition of the forskolin-stimulated cAMP production in SK-N-MC cells expressing human Histamine H4 receptor
Sequence (Q9H3N8 whole entry): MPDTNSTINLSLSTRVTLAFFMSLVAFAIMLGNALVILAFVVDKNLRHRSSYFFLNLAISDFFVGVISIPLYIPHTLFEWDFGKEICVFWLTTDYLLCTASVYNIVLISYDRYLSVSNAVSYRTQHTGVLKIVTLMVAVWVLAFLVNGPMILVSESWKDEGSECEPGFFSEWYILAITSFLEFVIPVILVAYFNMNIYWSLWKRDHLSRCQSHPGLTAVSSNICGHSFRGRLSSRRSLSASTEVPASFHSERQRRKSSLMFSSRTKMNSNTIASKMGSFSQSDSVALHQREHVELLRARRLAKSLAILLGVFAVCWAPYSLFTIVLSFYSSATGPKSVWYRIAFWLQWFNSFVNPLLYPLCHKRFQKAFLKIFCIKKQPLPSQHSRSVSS
Test Readout: pEC50
Give bare numbers, as −log10 of the molar value.

Consider the reported pEC50 for these compounds:
>  <Compound>
NC[C@@H]1CC[C@@H](c2c[nH]cn2)O1

>  <pEC50>
4.51

$$$$
>  <Compound>
c1ccc(COC[C@H]2CC[C@@H](c3c[nH]cn3)O2)cc1

>  <pEC50>
4.94

$$$$
>  <Compound>
c1ccc(COC[C@H]2CC[C@H](c3c[nH]cn3)O2)cc1

>  <pEC50>
6.13

$$$$
>  <Compound>
NC[C@@H]1C=C[C@@H](c2c[nH]cn2)O1

>  <pEC50>
4.07

$$$$
>  <Compound>
C/N=C(\NC#N)NC[C@H]1CC[C@H](c2c[nH]cn2)O1

>  <pEC50>
7.11

$$$$

# batch: return pEC50 for each of the 8 compounds below
1. NC[C@@H]1C=C[C@H](c2c[nH]cn2)O1 (single isomer, unassigned)
2. NC[C@H]1CC[C@@H](c2c[nH]cn2)O1 (single isomer, unassigned)
3. NC[C@H]1C=C[C@H](c2c[nH]cn2)O1
4. NC[C@H]1C=C[C@@H](c2c[nH]cn2)O1 (single isomer, unassigned)
5. c1ccc(COC[C@@H]2CC[C@@H](c3c[nH]cn3)O2)cc1
6. NC[C@H]1CC[C@H](c2c[nH]cn2)O1
7. C/N=C(\NC#N)NC[C@@H]1CC[C@H](c2c[nH]cn2)O1 (single isomer, unassigned)
8. c1ccc(COC[C@@H]2CC[C@H](c3c[nH]cn3)O2)cc1

(A)
4.39
5.12
4.62
4.12
4.89
5.70
6.65
6.87

# batch: return pEC50 for each of the 2 compounds below
1. C/N=C(\NC#N)NC[C@@H]1CC[C@@H](c2c[nH]cn2)O1
2. NC[C@@H]1CC[C@H](c2c[nH]cn2)O1 (single isomer, unassigned)

(A)
4.67
5.26

---

What EC50 was measured for each of the following?
target: Histamine H3 receptor (Homo sapiens); assay: Inhibition of the forskolin-stimulated cAMP production in SK-N-MC cells expressing human Histamine H3 receptor
Sequence (Q9Y5N1 whole entry): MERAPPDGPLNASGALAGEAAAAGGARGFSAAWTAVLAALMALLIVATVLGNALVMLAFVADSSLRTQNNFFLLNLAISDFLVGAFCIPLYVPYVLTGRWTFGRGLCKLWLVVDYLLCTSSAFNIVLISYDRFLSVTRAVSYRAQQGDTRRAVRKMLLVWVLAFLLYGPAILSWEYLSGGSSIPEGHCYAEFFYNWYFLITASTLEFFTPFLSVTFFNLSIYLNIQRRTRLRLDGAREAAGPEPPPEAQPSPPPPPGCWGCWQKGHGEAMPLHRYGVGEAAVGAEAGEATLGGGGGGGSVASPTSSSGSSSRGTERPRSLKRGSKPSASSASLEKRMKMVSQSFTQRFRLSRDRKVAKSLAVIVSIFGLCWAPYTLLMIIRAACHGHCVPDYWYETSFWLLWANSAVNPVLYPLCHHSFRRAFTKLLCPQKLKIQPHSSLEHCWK

Consider the reported EC50 for these molecules:
>  <Molecule>
NC[C@H]1CC[C@H](c2c[nH]cn2)O1

>  <Test Readout>
EC50

>  <Assay Result>
0.0447 µM

$$$$
>  <Molecule>
NC[C@@H]1C=C[C@H](c2c[nH]cn2)O1 (single isomer, unassigned)

>  <Test Readout>
EC50

>  <Assay Result>
26.9 µM

$$$$
>  <Molecule>
c1ccc(COC[C@@H]2CC[C@@H](c3c[nH]cn3)O2)cc1

>  <Test Readout>
EC50

>  <Assay Result>
9.55 µM

$$$$
>  <Molecule>
NC[C@@H]1CC[C@@H](c2c[nH]cn2)O1

>  <Test Readout>
EC50

>  <Assay Result>
0.105 µM

$$$$
>  <Molecule>
NC[C@H]1C=C[C@@H](c2c[nH]cn2)O1 (single isomer, unassigned)

>  <Test Readout>
EC50

>  <Assay Result>
> 100 µM

$$$$

# batch: return EC50 for each of the 4 molecules below
1. NC[C@H]1CC[C@@H](c2c[nH]cn2)O1 (single isomer, unassigned)
2. NC[C@H]1C=C[C@H](c2c[nH]cn2)O1
3. c1ccc(COC[C@H]2CC[C@H](c3c[nH]cn3)O2)cc1
4. NC[C@@H]1C=C[C@@H](c2c[nH]cn2)O1

(A)
["0.813 µM", "0.269 µM", "0.0912 µM", "2.82 µM"]

---

target: Histamine H4 receptor (Homo sapiens, UniProt Q9H3N8); assay: Efficacy measured for human Histamine H4 receptor relative to histamine; format: functional
What Efficacy was measured for each of the following?
Numbers only.

>  <Molecule>
NC[C@@H]1CC[C@@H](c2c[nH]cn2)O1

>  <Assay Result>
0.6

$$$$
>  <Molecule>
NC[C@@H]1CC[C@H](c2c[nH]cn2)O1 (single isomer, unassigned)

>  <Assay Result>
0.88

$$$$
>  <Molecule>
C/N=C(\NC#N)NC[C@H]1CC[C@@H](c2c[nH]cn2)O1 (single isomer, unassigned)

>  <Assay Result>
1.07

$$$$
>  <Molecule>
NC[C@@H]1C=C[C@H](c2c[nH]cn2)O1 (single isomer, unassigned)

>  <Assay Result>
0.74

$$$$

We now examine a further molecule.
(Q) What value of measured Efficacy is listed for NC[C@@H]1C=C[C@@H](c2c[nH]cn2)O1 ?
(A) 0.85

---

molecular target: Histamine H3 receptor (Homo sapiens); experiment: Histamine H3 receptor competition binding using [3H]Na-methylhistamine
pKi: −log10 of the molar value.
Assign criterion met whenever pKi does not fall below 6; assign criterion not met whenever it does.

Below, 6 compounds whose answers are already recorded.
>  <Compound>
NC[C@@H]1C=C[C@H](c2c[nH]cn2)O1 (single isomer, unassigned)

>  <Assigned Category>
criterion not met

$$$$
>  <Compound>
c1ccc(COC[C@H]2CC[C@@H](c3c[nH]cn3)O2)cc1

>  <Assigned Category>
criterion not met

$$$$
>  <Compound>
NC[C@@H]1CC[C@@H](c2c[nH]cn2)O1

>  <Assigned Category>
criterion met

$$$$
>  <Compound>
c1ccc(COC[C@@H]2CC[C@H](c3c[nH]cn3)O2)cc1

>  <Assigned Category>
criterion met

$$$$
>  <Compound>
c1ccc(COC[C@H]2CC[C@H](c3c[nH]cn3)O2)cc1

>  <Assigned Category>
criterion met

$$$$
>  <Compound>
NC[C@H]1CC[C@H](c2c[nH]cn2)O1

>  <Assigned Category>
criterion met

$$$$

(Q) Please tell me: is the compound NC[C@H]1CC[C@@H](c2c[nH]cn2)O1 (single isomer, unassigned) at or over 6 in terms of pKi?
(A) criterion not met

(Q) Same question, NC[C@@H]1C=C[C@@H](c2c[nH]cn2)O1 this time
(A) criterion not met

(Q) Same question, NC[C@@H]1CC[C@H](c2c[nH]cn2)O1 (single isomer, unassigned) this time
(A) criterion not met

---

biological target: Histamine H4 receptor (Homo sapiens, UniProt Q9H3N8); assay: Histamine H4 receptor competition binding using [3H]Na-methylhistamine
What Ki was measured for each of the following?

Consider the reported Ki for these compounds:
>  <Compound>
C/N=C(\NC#N)NC[C@@H]1CC[C@H](c2c[nH]cn2)O1 (single isomer, unassigned)

>  <Assay Result>
0.224 µM

$$$$
>  <Compound>
NC[C@@H]1CC[C@@H](c2c[nH]cn2)O1

>  <Assay Result>
12.9 µM

$$$$
>  <Compound>
C/N=C(\NC#N)NC[C@@H]1CC[C@@H](c2c[nH]cn2)O1

>  <Assay Result>
20.4 µM

$$$$
>  <Compound>
NC[C@H]1CC[C@@H](c2c[nH]cn2)O1 (single isomer, unassigned)

>  <Assay Result>
6.46 µM

$$$$

# batch: return Ki for each of the 4 compounds below
1. NC[C@@H]1C=C[C@@H](c2c[nH]cn2)O1
2. NC[C@@H]1C=C[C@H](c2c[nH]cn2)O1 (single isomer, unassigned)
3. c1ccc(COC[C@@H]2CC[C@@H](c3c[nH]cn3)O2)cc1
4. c1ccc(COC[C@H]2CC[C@H](c3c[nH]cn3)O2)cc1

(A)
1: > 100 µM; 2: 21.9 µM; 3: 21.4 µM; 4: 1.05 µM

---

What Efficacy was measured for each of the following?
target: UniProt:Q9Y5N1; assay: Efficacy measured for human Histamine H3 receptor relative to histamine; assay type: functional
One number for each entry.

>  <Molecule>
NC[C@@H]1C=C[C@@H](c2c[nH]cn2)O1

>  <Test Readout>
Efficacy

>  <Assay Result>
0.75

$$$$
>  <Molecule>
c1ccc(COC[C@H]2CC[C@@H](c3c[nH]cn3)O2)cc1

>  <Test Readout>
Efficacy

>  <Assay Result>
0.86

$$$$
>  <Molecule>
NC[C@H]1CC[C@H](c2c[nH]cn2)O1 [IMIFURAMINE]

>  <Test Readout>
Efficacy

>  <Assay Result>
1.04

$$$$

We now examine a further molecule.
(Q) What value of measured Efficacy is listed for c1ccc(COC[C@@H]2CC[C@H](c3c[nH]cn3)O2)cc1 ?
(A) 1.06

---

biological target: Histamine H4 receptor (Homo sapiens, UniProt Q9H3N8); assay: Efficacy measured for human Histamine H4 receptor relative to histamine; assay type: functional
Test Readout: Efficacy
Answers are plain numbers.

Consider the reported Efficacy for these molecules:
>  <Molecule>
C/N=C(\NC#N)NC[C@@H]1CC[C@@H](c2c[nH]cn2)O1

>  <Efficacy>
1.06

$$$$
>  <Molecule>
c1ccc(COC[C@H]2CC[C@H](c3c[nH]cn3)O2)cc1

>  <Efficacy>
0.46

$$$$
>  <Molecule>
NC[C@H]1C=C[C@@H](c2c[nH]cn2)O1 (single isomer, unassigned)

>  <Efficacy>
0.71

$$$$

# batch: return Efficacy for each of the 7 molecules below
1. NC[C@H]1CC[C@H](c2c[nH]cn2)O1
2. c1ccc(COC[C@@H]2CC[C@H](c3c[nH]cn3)O2)cc1
3. c1ccc(COC[C@@H]2CC[C@@H](c3c[nH]cn3)O2)cc1
4. NC[C@H]1C=C[C@H](c2c[nH]cn2)O1
5. NC[C@H]1CC[C@@H](c2c[nH]cn2)O1 (single isomer, unassigned)
6. C/N=C(\NC#N)NC[C@@H]1CC[C@H](c2c[nH]cn2)O1 (single isomer, unassigned)
7. c1ccc(COC[C@H]2CC[C@@H](c3c[nH]cn3)O2)cc1

(A)
1. 0.7
2. 0.91
3. 0.49
4. 0.76
5. 1.02
6. 1.01
7. 0.82
